molecular target: nanobit-large-bit-ERK2 and nanobit-small-bit-PEA15 in WM793 cells (Homo sapiens); construct: expressed in transfected cells; assay: NanoBiT assay; assay type: cell-based; settings: WM793 nanobit stable cell line, overnight incubation; read-out: NanoBiT qualified absolute AC50
Sequence (P28482 whole entry): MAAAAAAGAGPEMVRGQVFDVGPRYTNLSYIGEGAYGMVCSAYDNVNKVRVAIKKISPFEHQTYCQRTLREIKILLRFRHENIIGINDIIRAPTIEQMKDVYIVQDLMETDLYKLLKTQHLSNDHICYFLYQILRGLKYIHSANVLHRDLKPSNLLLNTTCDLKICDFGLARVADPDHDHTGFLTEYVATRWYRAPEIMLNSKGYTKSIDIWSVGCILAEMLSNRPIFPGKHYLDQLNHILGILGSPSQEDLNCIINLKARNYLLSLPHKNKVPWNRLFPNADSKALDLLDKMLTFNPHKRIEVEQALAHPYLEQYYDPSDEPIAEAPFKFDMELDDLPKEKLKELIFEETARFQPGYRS
value.type: AC50 (nM)
Write the number in nM without appending the unit.

Examples with their reported AC50 follow.
{"columns": ["compound", "AC50, nM"],
 "data": [
  ["C[C@H]1C[C@@H](C(=O)O)CC[C@@H]1NC(=O)C1(c2ccc(F)cc2)CCN(C(=O)n2c3c(c4ccc(F)cc42)[C@@H](c2ccccc2)OCC3)CC1 (single isomer, unassigned) [Example 10b]", 12000],
  ["CC(C)O[C@H]1CC[C@H](Cn2c(C=O)c(C(=O)N3CCC(C(=O)N[C@H]4CC[C@H](C(=O)O)C[C@@H]4C)(c4ccc(F)cc4)CC3)c3cc(Cl)ccc32)CC1 [Example 11h]", 54]
]}

AC50 measured on C[C@H]1C[C@@H](C(=O)O)CC[C@@H]1NC(=O)[C@@]1(c2ccc(F)cc2)CCN(C(=O)n2c3c(c4ccc(F)cc42)C(C2CCOCC2)OCC3)[C@@H](C)C1 (single isomer, unassigned) = 280
